The entries below come with measured activity, negative = inhibition values attached.
Target: Cytochrome P450 2D6 (Homo sapiens)
Test: Cytochrome panel assay with activity outcomes; further: on the % scale 0 is the no-effect control and ±100 the full control effect
Conditions: recombinant CYP, pro-luciferin dealkylation, luminescence, p450-cyp2d6; series mostly up to 57.1 µM
About 2,600 (16%) of roughly 16,000 compounds were called active. Inconclusive results (about 20%) are left out. These entries were drawn from the full list.

// worked examples, activity, negative = inhibition included
# CHEMICAL STRING, activity, negative = inhibition
measured = [
    ("C[C@@H]1Oc2ccc(C(=O)C[C@@H](C(=O)O)c3ccc4c(c3)OCO4)cc2O1", "-15.2% [at 11.4 µM] (inactive)"),
    ("Cc1ccccc1CN1C2=NCCN2C(=O)C2=C1CCN(Cc1ccccc1)C2", "-16.1% [at 11.4 µM] (inactive)"),
    ("CCOc1ccccc1Nc1ccc(N)cc1S(=O)(=O)O", "0.246% [at 11.4 µM] (inactive)"),
    ("C[C@@H](C(=O)O)/C(=C/c1ccc2c(c1)OCO2)C(=O)O", "14.3% [at 11.4 µM] (inactive)"),
]

Please find the next compound below.
Result for O=C1[C@H]2[C@H]3[C@H](O)[C@H](O)C/C(=N/OC[C@@H](O)COCc4ccco4)[C@H]3CC[C@@H]2C(=O)N1C1CCCCC1 , tested on Cytochrome P450 2D6 (Homo sapiens), activity, negative = inhibition: 2.44% [at 11.4 µM] (inactive)

Ref: PubChem BioAssay AID1851
